Value source: ChEMBL document CHEMBL1135861

biological target: Gonadotropin-releasing hormone receptor (Rattus norvegicus, UniProt P30969)
Sequence (P30969 whole entry): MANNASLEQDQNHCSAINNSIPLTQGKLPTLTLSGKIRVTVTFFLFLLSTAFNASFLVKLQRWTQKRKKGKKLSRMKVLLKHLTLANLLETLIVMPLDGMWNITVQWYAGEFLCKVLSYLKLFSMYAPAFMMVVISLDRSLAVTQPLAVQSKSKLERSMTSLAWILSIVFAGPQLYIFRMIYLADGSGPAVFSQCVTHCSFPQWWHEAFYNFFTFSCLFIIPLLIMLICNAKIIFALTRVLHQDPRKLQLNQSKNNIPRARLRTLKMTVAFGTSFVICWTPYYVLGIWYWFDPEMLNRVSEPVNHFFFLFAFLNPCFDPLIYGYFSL
Mark met only for Ki values smaller than 700 nM; exact matches and larger values are not met.

[
  {
    "COMPOUND": "Cc1cc2c(cc1Cc1ccc(C(=O)NCC3CCCCC3)o1)C(C)(C)CCC2(C)C",
    "DISCRETE_LABEL": "not met"
  },
  {
    "COMPOUND": "Cc1cc2c(cc1Cc1ccc(C(=O)NC[C@H]3CC[C@H](CNC(=N)N)CC3)o1)C(C)(C)CCC2(C)C",
    "DISCRETE_LABEL": "met"
  },
  {
    "COMPOUND": "Cc1cc2c(cc1Cc1ccc(C(=O)NCC3CCC(CNCc4c(C)noc4C)CC3)o1)C(C)(C)CCC2(C)C (configuration not stated)",
    "DISCRETE_LABEL": "not met"
  },
  {
    "COMPOUND": "Cc1cc2c(cc1Cc1ccc(C(=O)NC[C@H]3CC[C@@H](CNC(=N)N)CC3)o1)C(C)(C)CCC2(C)C",
    "DISCRETE_LABEL": "not met"
  },
  {
    "COMPOUND": "Cc1cc2c(cc1Cc1ccc(C(=O)NCC3CCC(CNCc4cc(=O)[nH]c(=O)[nH]4)CC3)o1)C(C)(C)CCC2(C)C (configuration not stated)",
    "DISCRETE_LABEL": "not met"
  }
]

Prompt line: I wonder whether COC(=O)[C@H]1CC[C@H](CNC(=O)c2ccc(Cc3cc4c(cc3C)C(C)(C)CCC4(C)C)o2)CC1 has Ki below 700 nM. Can you tell?
Response line: not met

---

Target chain: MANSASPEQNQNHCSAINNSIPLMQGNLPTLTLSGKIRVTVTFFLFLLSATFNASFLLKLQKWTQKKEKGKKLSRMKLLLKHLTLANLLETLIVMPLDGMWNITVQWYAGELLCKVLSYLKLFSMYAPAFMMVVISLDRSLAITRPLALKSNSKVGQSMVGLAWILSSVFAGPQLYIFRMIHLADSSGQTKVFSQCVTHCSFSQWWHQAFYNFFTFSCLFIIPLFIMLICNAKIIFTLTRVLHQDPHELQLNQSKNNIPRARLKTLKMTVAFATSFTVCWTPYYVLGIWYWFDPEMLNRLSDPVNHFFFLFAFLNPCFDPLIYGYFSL
Assign classes using reported Ki values and the ranges low range = under 40 nM, mid range = from 40 nM up to 80 nM, high range = 80 nM and over, please.

[
  {
    "COMPOUND": "Cc1cnc(CNC(=O)c2ccc(Cc3cc4c(cc3C)C(C)(C)CCC4(C)C)o2)cn1",
    "DISCRETE_LABEL": "mid range"
  },
  {
    "COMPOUND": "CCOC(=O)[C@H]1CC[C@H](CNC(=O)c2ccc(Cc3cc4c(cc3C)C(C)(C)CCC4(C)C)o2)CC1",
    "DISCRETE_LABEL": "mid range"
  },
  {
    "COMPOUND": "Cc1cc2c(cc1Cc1ccc(C(=O)NC[C@H]3CC[C@H](CNC(=N)N)CC3)o1)C(C)(C)CCC2(C)C",
    "DISCRETE_LABEL": "low range"
  }
]

Prompt line: Which of the defined bands does the recorded Ki of Cc1ccc(CNC(=O)c2ccc(Cc3cc4c(cc3C)C(C)(C)CCC4(C)C)o2)cc1 sit within?
Response line: high range

Prompt line: Hey, which category is Cc1cc2c(cc1Cc1ccc(C(=O)NCC3CCNCC3)o1)C(C)(C)CCC2(C)C in, do you know?
Response line: high range

Prompt line: For Cc1cc2c(cc1Cc1ccc(C(=O)NCC3CCC(C#N)CC3)o1)C(C)(C)CCC2(C)C (centres undefined) , which Ki bin applies?
Response line: low range

Prompt line: Using the reported Ki, which band applies to Cc1cc2c(cc1Cc1ccc(C(=O)NCC3CCCC(CNC(=O)C(F)(F)F)C3)o1)C(C)(C)CCC2(C)C (centres undefined) ?
Response line: low range

Prompt line: Returns: class label. Input: Cc1cc2c(cc1Cc1ccc(C(=O)NCC3CCN(C(=N)N)CC3)o1)C(C)(C)CCC2(C)C
Response line: high range

Prompt line: Each compound maps to one class by Ki. Which class for Cc1cc2c(cc1Cc1ccc(C(=O)NCC3CCCCC3)o1)C(C)(C)CCC2(C)C ?
Response line: high range

Prompt line: Assign a bin to Cc1cc2c(cc1Cc1ccc(C(=O)NCC3CCC(CNC(=O)C(F)(F)F)CC3)o1)C(C)(C)CCC2(C)C (centres undefined)
Response line: mid range

Prompt line: Category of Cc1cc2c(cc1Cc1ccc(C(=O)NCc3ccccc3)o1)C(C)(C)CCC2(C)C , please.
Response line: high range
